Target: h-CAXII (Homo sapiens, UniProt O43570)
Construct: His (N); host or cells: HEK 293 T
Sequence (O43570 25-354): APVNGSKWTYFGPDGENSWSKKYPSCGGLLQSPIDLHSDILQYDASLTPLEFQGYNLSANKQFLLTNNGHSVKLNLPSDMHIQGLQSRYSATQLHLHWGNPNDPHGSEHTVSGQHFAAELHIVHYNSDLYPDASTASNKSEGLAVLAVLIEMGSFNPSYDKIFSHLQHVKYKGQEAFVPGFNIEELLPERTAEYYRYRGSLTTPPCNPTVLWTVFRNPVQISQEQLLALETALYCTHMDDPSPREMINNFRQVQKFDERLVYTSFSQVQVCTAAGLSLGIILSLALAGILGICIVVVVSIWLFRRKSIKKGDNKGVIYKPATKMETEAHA
Assay: Inhibition assay for carbonic anhydrase XII
Format: biochemical
Settings: n = 3; read-out: CAXII IC50 (µM) ± SEM
ATTRIBUTE MEASURED: IC50 (µM)

[[record]]
smiles_structure = "CC(C)(C)c1ccc(-c2cc3cccnc3n3cccc23)cc1"
attribute_measured = "IC50"
unit_text = "µM"
quantitative_readout = 1.51

[[record]]
smiles_structure = "COc1ccc(-c2cc3cccnc3n3cccc23)cc1"
attribute_measured = "IC50"
unit_text = "µM"
quantitative_readout = 4.3

[[record]]
smiles_structure = "c1cnc2c(c1)cc(C1CCCCC1)c1cccn12"
attribute_measured = "IC50"
unit_text = "µM"
quantitative_readout = 1.5

[[record]]
smiles_structure = "COc1ccc(-c2cc3cccnc3n3cccc23)c(C)c1"
attribute_measured = "IC50"
unit_text = "µM"
quantitative_readout = 0.8

[[record]]
smiles_structure = "Fc1ccccc1-c1cc2cccnc2n2cccc12"
attribute_measured = "IC50"
unit_text = "µM"
quantitative_readout = 0.51

[[record]]
smiles_structure = "COc1cccc(-c2cc3cccnc3n3cccc23)c1"
attribute_measured = "IC50"
unit_text = "µM"
quantitative_readout = 3.05

[[record]]
smiles_structure = "CCCCc1cc2cccnc2n2cccc12"
attribute_measured = "IC50"
unit_text = "µM"
quantitative_readout = 0.51

[[record]]
smiles_structure = "c1ccc(-c2cc3cccnc3n3cccc23)cc1"
attribute_measured = "IC50"
unit_text = "µM"
quantitative_readout = 0.32

[[record]]
smiles_structure = "Fc1ccc(-c2cc3cccnc3n3cccc23)cc1"
attribute_measured = "IC50"
unit_text = "µM"
quantitative_readout = 0.96

[[record]]
smiles_structure = "Cc1ccc(-c2cc3cccnc3n3cccc23)cc1"
attribute_measured = "IC50"
unit_text = "µM"
quantitative_readout = 2.4

[[record]]
smiles_structure = "Cc1cccc(-c2cc3cccnc3n3cccc23)c1"
attribute_measured = "IC50"
unit_text = "µM"
quantitative_readout = 0.46

[[record]]
smiles_structure = "c1cnc2c(c1)cc(-c1ccsc1)c1cccn12"
attribute_measured = "IC50"
unit_text = "µM"
quantitative_readout = 1.8


----------
We begin with a simple list: items and their reported IC50.
Molecular target: h-CAIX (Homo sapiens)
Construct: His (N); host or cells: HEK 293 T
Assay: Inhibition assay for carbonic anhydrase IX
Assay type: biochemical
Conditions: n = 3; read-out: CAIX IC50 (µM) ± SEM
ATTRIBUTE MEASURED: IC50 (µM)

[[record]]
smiles_structure = "Fc1ccccc1-c1cc2cccnc2n2cccc12"
quantitative_readout = 1.65

[[record]]
smiles_structure = "COc1ccc(-c2cc3cccnc3n3cccc23)cc1"
quantitative_readout = 0.99

[[record]]
smiles_structure = "COc1cccc(-c2cc3cccnc3n3cccc23)c1"
quantitative_readout = 0.11

[[record]]
smiles_structure = "c1ccc(-c2cc3cccnc3n3cccc23)cc1"
quantitative_readout = 0.86


----------
Molecular target: h-CAIX (Homo sapiens, UniProt Q16790)
Construct: His (N); host or cells: HEK 293 T
Assay: Inhibition assay for carbonic anhydrase IX
Format: biochemical
Settings: n = 3; read-out: CAIX IC50 (µM) ± SEM
IC50 for assorted compounds
ATTRIBUTE MEASURED: IC50 (µM)

[[record]]
compound = "Cc1cccc(-c2cc3cccnc3n3cccc23)c1 [Compound 1i]"
attribute_measured = "IC50"
quantitative_readout = 0.87

[[record]]
compound = "COc1ccc(-c2cc3cccnc3n3cccc23)c(C)c1 [Compound 1h]"
attribute_measured = "IC50"
quantitative_readout = 0.74

[[record]]
compound = "Cc1ccc(-c2cc3cccnc3n3cccc23)cc1 [Compound 1d]"
attribute_measured = "IC50"
quantitative_readout = 1.36

[[record]]
compound = "CCCCc1cc2cccnc2n2cccc12 [Compound 1e]"
attribute_measured = "IC50"
quantitative_readout = 1.61

[[record]]
compound = "Fc1ccc(-c2cc3cccnc3n3cccc23)cc1 [Compound 1c]"
attribute_measured = "IC50"
quantitative_readout = 0.7

[[record]]
compound = "c1cnc2c(c1)cc(C1CCCCC1)c1cccn12 [Compound 1l]"
attribute_measured = "IC50"
quantitative_readout = 3.2


----------
Target: b-TNAP (Bos taurus, UniProt P09487)
Experiment: Alkaline phosphatase inhibition assay (b-TNAP, p-NPP substrate)
Format: biochemical
Conditions: n = 3; read-out: b-TNAP IC50 (µM) ± SEM
In this section we review reported IC50 values for a set of compounds.
ATTRIBUTE MEASURED: IC50 (µM)

[[record]]
smiles_structure = "COc1cccc(-c2cc3cccnc3n3cccc23)c1"
attribute_measured = "IC50"
unit_text = "µM"
quantitative_readout = 0.63

[[record]]
smiles_structure = "Fc1ccc(-c2cc3cccnc3n3cccc23)cc1"
attribute_measured = "IC50"
unit_text = "µM"
quantitative_readout = 1.01

[[record]]
smiles_structure = "c1ccc(-c2cc3cccnc3n3cccc23)cc1"
attribute_measured = "IC50"
unit_text = "µM"
quantitative_readout = 0.38


----------
Biological target: h-CAII (Homo sapiens)
Construct: His (N); host or cells: HEK 293 T
Test: Inhibition assay for carbonic anhydrase II
Type: biochemical
Settings: n = 3; read-out: CAII IC50 (µM) ± SEM
Exam item: assign Fulfilled to entries whose IC50 is below 1 µM and Not fulfilled to entries at or above 1 µM. Note that a value of exactly 1 µM receives Not fulfilled.

[[record]]
smiles_structure = "c1cnc2c(c1)cc(C1CCCCC1)c1cccn12"
group_label = "Not fulfilled"

[[record]]
smiles_structure = "COc1ccc(-c2cc3cccnc3n3cccc23)c(C)c1"
group_label = "Not fulfilled"

[[record]]
smiles_structure = "c1cnc2c(c1)cc(-c1ccsc1)c1cccn12"
group_label = "Not fulfilled"

[[record]]
smiles_structure = "CCCCc1cc2cccnc2n2cccc12"
group_label = "Fulfilled"

[[record]]
smiles_structure = "c1ccc(-c2cc3cccnc3n3cccc23)cc1"
group_label = "Not fulfilled"

[[record]]
smiles_structure = "Fc1ccccc1-c1cc2cccnc2n2cccc12"
group_label = "Not fulfilled"

[[record]]
smiles_structure = "COc1cccc(-c2cc3cccnc3n3cccc23)c1"
group_label = "Fulfilled"

[[record]]
smiles_structure = "Fc1ccc(-c2cc3cccnc3n3cccc23)cc1"
group_label = "Fulfilled"

[[record]]
smiles_structure = "CC(C)(C)c1ccc(-c2cc3cccnc3n3cccc23)cc1"
group_label = "Not fulfilled"


----------
Target: b-TNAP (Bos taurus)
Sequence (P09487 18-524): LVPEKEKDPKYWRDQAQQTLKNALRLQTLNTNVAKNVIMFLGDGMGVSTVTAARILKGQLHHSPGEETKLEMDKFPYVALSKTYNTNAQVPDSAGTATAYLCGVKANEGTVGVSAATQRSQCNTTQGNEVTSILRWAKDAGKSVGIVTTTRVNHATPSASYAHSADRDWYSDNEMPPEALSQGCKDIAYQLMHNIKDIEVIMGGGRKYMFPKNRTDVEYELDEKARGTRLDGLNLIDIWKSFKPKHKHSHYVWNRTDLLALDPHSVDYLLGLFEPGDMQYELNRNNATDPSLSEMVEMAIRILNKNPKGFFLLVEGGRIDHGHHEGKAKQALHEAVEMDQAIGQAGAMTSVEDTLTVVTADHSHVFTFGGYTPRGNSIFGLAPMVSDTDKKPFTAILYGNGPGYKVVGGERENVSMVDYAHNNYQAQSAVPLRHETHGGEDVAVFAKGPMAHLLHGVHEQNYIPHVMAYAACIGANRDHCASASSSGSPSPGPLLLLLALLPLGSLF
Assay: Alkaline phosphatase inhibition assay (b-TNAP, p-NPP substrate)
Format: biochemical
Settings: n = 3; read-out: b-TNAP IC50 (µM) ± SEM
ATTRIBUTE MEASURED: IC50 (µM)

[[record]]
compound = "CCCCc1cc2cccnc2n2cccc12"
quantitative_readout = 0.32

[[record]]
compound = "c1cnc2c(c1)cc(-c1ccsc1)c1cccn12"
quantitative_readout = 0.36

[[record]]
compound = "COc1ccc(-c2cc3cccnc3n3cccc23)cc1"
quantitative_readout = 0.14

[[record]]
compound = "c1cnc2c(c1)cc(C1CCCCC1)c1cccn12"
quantitative_readout = 0.24

[[record]]
compound = "c1ccc([C@H]2CN3CCSC3=N2)cc1 [Levamisole, reference compound]"
quantitative_readout = 19.2


Source listed as paper PMC10599030.
